molecules and their reported AC50
- testedTarget: Type-1 angiotensin II receptor (Homo sapiens, UniProt P30556); also: assay procedure not described here
- Sequence (P30556 whole entry): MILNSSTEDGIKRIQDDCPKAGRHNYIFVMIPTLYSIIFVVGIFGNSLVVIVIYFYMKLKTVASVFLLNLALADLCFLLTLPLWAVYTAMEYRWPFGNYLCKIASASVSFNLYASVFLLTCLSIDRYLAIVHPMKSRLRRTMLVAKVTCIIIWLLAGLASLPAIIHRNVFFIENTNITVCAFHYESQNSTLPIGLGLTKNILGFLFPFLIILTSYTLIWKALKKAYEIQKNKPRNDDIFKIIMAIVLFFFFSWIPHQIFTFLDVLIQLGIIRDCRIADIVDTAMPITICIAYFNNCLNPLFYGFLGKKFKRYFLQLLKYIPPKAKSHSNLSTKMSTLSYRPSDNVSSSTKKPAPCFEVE

Below, each entry is followed by its recorded AC50 result.
molecule | testedTarget | AC50
C[N+](C)(C)CCOC(N)=O | Type-1 angiotensin II receptor (Homo sapiens, UniProt P30556) | > 10 µM
O=C1CN=C(c2ccccc2)c2cc(Cl)ccc2N1CC(F)(F)F | Type-1 angiotensin II receptor (Homo sapiens, UniProt P30556) | > 30 µM
Cc1c(C(=O)Nc2ccc(N3C[C@@H](C)O[C@@H](C)C3)nc2)cccc1-c1ccc(OC(F)(F)F)cc1 | Type-1 angiotensin II receptor (Homo sapiens, UniProt P30556) | > 30 µM
COc1cc2c(cc1OC)C(=O)C(CC1CCN(Cc3ccccc3)CC1)C2 (centres undefined) | Type-1 angiotensin II receptor (Homo sapiens, UniProt P30556) | 15.6 µM
C[C@]12CCC(=O)C=C1CC[C@@H]1[C@@H]2CC[C@@]2(C)[C@H]1CC[C@]2(C)O | Type-1 angiotensin II receptor (Homo sapiens, UniProt P30556) | > 30 µM
OCc1cc([C@@H](O)CNCCCCCCOCCOCc2c(Cl)cccc2Cl)ccc1O | Type-1 angiotensin II receptor (Homo sapiens, UniProt P30556) | > 30 µM
CN1CCC2=C(C1)C(c1ccccc1)c1ccccc12 (centres undefined) | Type-1 angiotensin II receptor (Homo sapiens, UniProt P30556) | > 10 µM
CCNC(C)Cc1cccc(C(F)(F)F)c1 (centres undefined) | Type-1 angiotensin II receptor (Homo sapiens, UniProt P30556) | > 30 µM

Proceeding to the next molecule to report its AC50.
Record lookup: for Type-1 angiotensin II receptor (Homo sapiens, UniProt P30556), what AC50 belongs to CCCCCCCCCCCC[N+](C)(C)CCOc1ccccc1 ? 14 µM

* * *

- testedTarget: Histamine H2 receptor (Homo sapiens, UniProt P25021); also: assay procedure not described here
- Sequence (P25021 whole entry): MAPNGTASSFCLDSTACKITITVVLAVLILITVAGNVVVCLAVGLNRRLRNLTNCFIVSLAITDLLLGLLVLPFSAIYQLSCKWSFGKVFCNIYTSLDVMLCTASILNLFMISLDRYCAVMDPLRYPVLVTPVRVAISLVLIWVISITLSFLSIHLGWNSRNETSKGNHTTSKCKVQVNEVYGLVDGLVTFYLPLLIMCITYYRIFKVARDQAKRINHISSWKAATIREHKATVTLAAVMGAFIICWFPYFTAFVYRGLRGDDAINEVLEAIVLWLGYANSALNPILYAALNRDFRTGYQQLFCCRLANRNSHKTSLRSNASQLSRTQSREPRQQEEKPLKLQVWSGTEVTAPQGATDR
measuredAttribute: AC50

Endpoint output: AC50 of CC(C)c1c(C(=O)Nc2ccccc2)c(-c2ccccc2)c(-c2ccc(F)cc2)n1CC[C@@H](O)C[C@@H](O)CC(=O)O . Value? > 10 µM

Endpoint output: AC50 of CCCCCN(C)CCC(O)(P(=O)(O)O)P(=O)(O)O . Value? > 10 µM

Endpoint output: AC50 of CC(C(=O)O)c1ccc(N2CC=CC2)c(Cl)c1 (centres undefined) . Value? > 10 µM

Endpoint output: AC50 of O=C1CCC(N2C(=O)c3ccccc3C2=O)C(=O)N1 (centres undefined) [THALIDOMIDE] . Value? > 10 µM

Endpoint output: AC50 of NC(=O)c1cnccn1 [PYRAZINAMIDE] . Value? > 10 µM

Endpoint output: AC50 of CCc1ccc(CCOc2ccc(CC3SC(=O)NC3=O)cc2)nc1 (centres undefined) . Value? > 10 µM

Endpoint output: AC50 of CN(CCOc1ccc(NS(C)(=O)=O)cc1)CCc1ccc(NS(C)(=O)=O)cc1 [DOFETILIDE] . Value? > 10 µM

Endpoint output: AC50 of Cc1ccc(-c2nc3ccc(C)cn3c2CC(=O)N(C)C)cc1 . Value? > 10 µM

Endpoint output: AC50 of O=P(O)(O)C(O)(Cc1cccnc1)P(=O)(O)O . Value? > 10 µM

* * *

- testedTarget: Prostaglandin G/H synthase 1 (Rattus norvegicus)
- Sequence (Q63921 whole entry): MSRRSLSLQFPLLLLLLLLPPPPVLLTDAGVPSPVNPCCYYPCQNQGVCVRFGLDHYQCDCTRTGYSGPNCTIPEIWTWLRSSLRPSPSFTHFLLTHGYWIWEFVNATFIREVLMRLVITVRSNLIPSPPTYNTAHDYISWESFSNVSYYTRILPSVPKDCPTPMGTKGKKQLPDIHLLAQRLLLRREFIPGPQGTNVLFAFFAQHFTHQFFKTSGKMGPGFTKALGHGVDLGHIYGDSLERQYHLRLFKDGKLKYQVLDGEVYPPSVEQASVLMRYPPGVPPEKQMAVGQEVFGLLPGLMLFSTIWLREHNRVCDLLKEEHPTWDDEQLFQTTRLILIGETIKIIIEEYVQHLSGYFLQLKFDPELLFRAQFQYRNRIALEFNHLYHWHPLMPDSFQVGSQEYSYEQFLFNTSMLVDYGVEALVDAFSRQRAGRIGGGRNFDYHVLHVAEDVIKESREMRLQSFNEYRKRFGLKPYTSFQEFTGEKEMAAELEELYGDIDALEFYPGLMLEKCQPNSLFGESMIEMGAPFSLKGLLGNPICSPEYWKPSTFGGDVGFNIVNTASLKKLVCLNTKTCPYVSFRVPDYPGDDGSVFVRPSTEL
- Type: functional
measuredAttribute: AC50

Below, each entry is followed by its recorded AC50 result.
compound | AC50
O=P(O)(O)C(O)(Cc1cccnc1)P(=O)(O)O [RISEDRONIC ACID] | > 30 µM
CS(=O)(=O)c1ccc([C@@H](O)[C@@H](CO)NC(=O)C(Cl)Cl)cc1 [THIAMPHENICOL] | > 30 µM
C[C@H]1C[C@@H]2[C@H]([C@@H](O)C[C@@]3(C)[C@H]2CC[C@]3(O)C(=O)CO)[C@@]2(C)C=CC(=O)C=C12 [METHYLPREDNISOLONE] | > 10 µM
CN[C@@H](C)[C@H](O)c1ccccc1 [EPHEDRINE] | > 30 µM
CC(C)(C(=O)c1cccnc1)c1cccnc1 [METYRAPONE] | > 10 µM

Record lookup: for Prostaglandin G/H synthase 1 (Rattus norvegicus), what AC50 belongs to CCNC(C)Cc1cccc(C(F)(F)F)c1 (centres undefined) [FENFLURAMINE] ? > 30 µM

Record lookup: for Prostaglandin G/H synthase 1 (Rattus norvegicus), what AC50 belongs to O=C(Nc1ccccc1)OCC(CN1CCCCC1)OC(=O)Nc1ccccc1 (centres undefined) [DIPERODON] ? > 30 µM

Record lookup: for Prostaglandin G/H synthase 1 (Rattus norvegicus), what AC50 belongs to C#C[C@]1(O)CC[C@H]2[C@@H]3CCc4cc(O)ccc4[C@H]3CC[C@@]21C [ETHINYL ESTRADIOL] ? 24.3 µM

Record lookup: for Prostaglandin G/H synthase 1 (Rattus norvegicus), what AC50 belongs to CC/C=C\C/C=C\C/C=C\CCCCCCCC(=O)O [LINOLENIC ACID] ? 6.3 µM

* * *

- testedTarget: Prostaglandin G/H synthase 1 (Homo sapiens)
- Sequence (P23219 whole entry): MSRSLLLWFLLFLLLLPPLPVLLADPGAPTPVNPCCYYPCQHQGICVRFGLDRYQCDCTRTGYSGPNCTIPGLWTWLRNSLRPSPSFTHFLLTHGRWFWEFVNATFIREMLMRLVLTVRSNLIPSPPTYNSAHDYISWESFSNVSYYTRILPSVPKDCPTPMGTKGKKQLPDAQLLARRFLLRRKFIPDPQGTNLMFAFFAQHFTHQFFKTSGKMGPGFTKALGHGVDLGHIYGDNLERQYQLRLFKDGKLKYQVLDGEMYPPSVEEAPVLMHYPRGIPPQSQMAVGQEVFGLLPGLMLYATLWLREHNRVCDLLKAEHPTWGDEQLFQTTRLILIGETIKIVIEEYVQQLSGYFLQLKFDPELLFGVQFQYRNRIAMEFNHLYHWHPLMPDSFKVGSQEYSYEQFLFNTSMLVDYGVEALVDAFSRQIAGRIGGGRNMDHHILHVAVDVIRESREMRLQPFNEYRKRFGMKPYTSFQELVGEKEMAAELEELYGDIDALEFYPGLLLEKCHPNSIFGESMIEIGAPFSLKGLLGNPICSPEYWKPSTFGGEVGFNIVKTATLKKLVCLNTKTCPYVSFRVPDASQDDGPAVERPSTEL
- Assay type: functional
compounds and their reported AC50

Below, each entry is followed by its recorded AC50 result.
compound | testedTarget | AC50
CCC1C(C)=NN=C(c2ccc(OC)c(OC)c2)c2cc(OC)c(OC)cc21 (stereo not drawn) | Prostaglandin G/H synthase 1 (Homo sapiens) | > 30 µM
CCCC[N+]1(C)[C@@H]2C[C@@H](OC(=O)[C@H](CO)c3ccccc3)C[C@H]1[C@@H]1O[C@@H]12 (stereo partly drawn) | Prostaglandin G/H synthase 1 (Homo sapiens) | > 30 µM
CC(=O)Oc1c(C)cc(OCC(O)CNC(C)C)c(C)c1C (stereo not drawn) | Prostaglandin G/H synthase 1 (Homo sapiens) | > 30 µM
O=C1CCC(N2C(=O)c3ccccc3C2=O)C(=O)N1 (stereo not drawn) [THALIDOMIDE] | Prostaglandin G/H synthase 1 (Homo sapiens) | > 30 µM
CC(=O)OC(C)C[N+](C)(C)C (stereo not drawn) | Prostaglandin G/H synthase 1 (Homo sapiens) | > 30 µM
COc1cc(Nc2c(C#N)cnc3cc(OCCCN4CCN(C)CC4)c(OC)cc23)c(Cl)cc1Cl | Prostaglandin G/H synthase 1 (Homo sapiens) | > 30 µM
C[C@@H]1O[C@@H](OC[C@H]2O[C@@H](Oc3c(-c4ccc(OCCO)c(OCCO)c4)oc4cc(OCCO)cc(O)c4c3=O)[C@H](O)[C@@H](O)[C@@H]2O)[C@H](O)[C@H](O)[C@H]1O | Prostaglandin G/H synthase 1 (Homo sapiens) | 22.4 µM
CC(=O)O[C@]1(C(C)=O)CC[C@H]2[C@@H]3C[C@H](C)C4=CC(=O)CC[C@]4(C)[C@H]3CC[C@@]21C [MEDROXYPROGESTERONE ACETATE] | Prostaglandin G/H synthase 1 (Homo sapiens) | > 30 µM
Oc1cccc2cccnc12 | Prostaglandin G/H synthase 1 (Homo sapiens) | > 30 µM
Cc1nc(-c2ccc(OCC(C)C)c(C#N)c2)sc1C(=O)O | Prostaglandin G/H synthase 1 (Homo sapiens) | > 30 µM

Endpoint output: AC50 of N/N=c1/cc2c(n[nH]1)CCN(C(=O)c1ccccc1)C2 . Value? 22.3 µM

Endpoint output: AC50 of CC1=NN(c2ccccc2)C(=O)C1 . Value? 12.5 µM

Endpoint output: AC50 of COc1ccc(CCC(C)NCC(O)c2ccc(O)c([S+](C)[O-])c2)cc1 (stereo not drawn) . Value? > 30 µM

Endpoint output: AC50 of CN1CCCC(CN2c3ccccc3Sc3ccccc32)C1 (stereo not drawn) . Value? 21.6 µM

Endpoint output: AC50 of CCC(Cc1c(I)cc(I)c(N)c1I)C(=O)O (stereo not drawn) . Value? > 30 µM

Endpoint output: AC50 of CC(=O)OC[C@H]1O[C@@H](n2ccc(=O)[nH]c2=O)[C@H](OC(C)=O)[C@@H]1OC(C)=O [URIDINE TRIACETATE] . Value? > 30 µM

Endpoint output: AC50 of NS(=O)(=O)c1cc2c(cc1Cl)NC(C1CC3C=CC1C3)NS2(=O)=O (stereo not drawn) [CYCLOTHIAZIDE] . Value? > 30 µM

Endpoint output: AC50 of OC[C@@H](O)[C@@H](O)[C@H](O)[C@H](O)CO . Value? > 30 µM

* * *

compounds and their reported AC50
- testedTarget: 5-hydroxytryptamine receptor 1A (Homo sapiens); also: assay procedure not described here
- Sequence (P08908 whole entry): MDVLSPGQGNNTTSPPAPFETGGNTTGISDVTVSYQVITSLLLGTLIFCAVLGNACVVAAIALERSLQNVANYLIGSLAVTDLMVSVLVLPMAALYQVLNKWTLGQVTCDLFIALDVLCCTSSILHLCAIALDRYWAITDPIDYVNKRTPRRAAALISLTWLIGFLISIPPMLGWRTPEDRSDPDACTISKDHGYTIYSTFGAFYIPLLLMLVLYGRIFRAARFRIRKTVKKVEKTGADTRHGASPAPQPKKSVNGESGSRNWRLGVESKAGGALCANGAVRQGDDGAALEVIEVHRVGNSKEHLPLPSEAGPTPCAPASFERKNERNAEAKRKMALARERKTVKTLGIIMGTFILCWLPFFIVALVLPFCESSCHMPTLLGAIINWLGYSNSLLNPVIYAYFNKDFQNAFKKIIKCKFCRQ

Below, each entry is followed by its recorded AC50 result.
compound | measuredAttribute | result
CCCC[N+]1(C)[C@@H]2C[C@@H](OC(=O)[C@H](CO)c3ccccc3)C[C@H]1[C@@H]1O[C@@H]12 (stereo not given in full) | AC50 | > 30 µM
Oc1c(I)cc(I)c2cccnc12 | AC50 | > 10 µM
Cc1cc2c(cc1CC(=O)c1sccc1S(=O)(=O)Nc1onc(C)c1Cl)OCO2 | AC50 | > 30 µM
Nc1ccc(C(=O)O)cc1 | AC50 | > 30 µM

Proceeding to the next compound to report its AC50.
Endpoint output: AC50 of NS(=O)(=O)c1cc2c(cc1Cl)NC(CC1CCCC1)NS2(=O)=O (stereo not given) [CYCLOPENTHIAZIDE] . Value? > 30 µM
